System: MDA-N
PROCEDURE DETAILS: NCI tumour cell line growth inhibition, 48 h
Calls of active or inactive are those of the source. Cut-off read from the data, not from the text of the source: active = GI50 up to about 1.1 µM and inactive = higher.
Choose the fitting class; nothing outside class 1 (active), class 0 (inactive) is accepted.

[
  {
    "COMPOUND": "O=C1c2ccccc2C(=O)c2c1c1cc(O)ccc1n2Cc1ccc(Cl)cc1Cl",
    "ASSIGNED LABEL": "class 0"
  },
  {
    "COMPOUND": "COc1cc2c(cc1OC)C/C(=N\\O)c1cc(OC)c(OC)cc1/C=C\\2",
    "ASSIGNED LABEL": "class 0"
  }
]

Outcome logged for CC(=O)O[C@H]1C(=O)[C@]2(C)[C@@H](OC(=O)OCCC(O)CO)C[C@H]3OC[C@@]3(OC(C)=O)[C@H]2[C@H](OC(=O)c2ccccc2)[C@]2(O)C[C@H](OC(=O)[C@H](O)[C@@H](NC(=O)c3ccccc3)c3ccccc3)C(C)=C1C2(C)C (stereo partly drawn) in this assay:
class 1

// provenance: ChEMBL document CHEMBL1201862
